biological target: TNFα (Homo sapiens); assay: TNF induced HEK-Blue assay (NF-kB-driven secreted alkaline phosphatase reporter); format: cell-based; conditions: TNFα 0.5 ng/mL, HEK-Blue-CD40L cells, 18 h; read-out: TNF induced HEK-Blue assay IC50 value
Sequence (P01375 77-233 limits assumed): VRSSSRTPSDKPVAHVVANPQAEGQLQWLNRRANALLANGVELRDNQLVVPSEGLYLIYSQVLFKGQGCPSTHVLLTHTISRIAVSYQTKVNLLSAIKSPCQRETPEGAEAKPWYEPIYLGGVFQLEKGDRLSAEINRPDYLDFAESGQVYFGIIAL
Measure: IC50

CC(Cc1ccco1)Nc1c(Cl)cnc2ccc(-c3cnc(C(C)(C)O)nc3)cc12 (racemic) [Example 133] : < 1 µM

Provide IC50 values for the following items, in order.
1. CC(Nc1c(Cl)cnc2ccc(-c3cnc(C(C)(C)O)nc3)cc12)[C@H]1CCCN(CC(O)CO)C1 (stereo partly drawn) [Example 106]
2. C[C@@H](Nc1c(Cl)cnc2ccc(-c3cnc(C(C)(C)O)nc3)cc12)c1cc(-c2cncnc2)ccc1F [Example 340]
3. C[C@@H](Nc1c(Cl)cnc2ccc(-c3cnc(C(C)(C)O)nc3)cc12)c1cc(-c2ccc(N)nc2)ccc1F [Example 348]
4. CC(Nc1c(Cl)cnc2c(Cl)cc(-c3ccc(C(C)(C)O)cc3)cc12)c1ccccc1F (racemic) [Example 21]
5. Cc1nc2cc(F)c(-c3cnc(N4CCNC(=O)C4)nc3)cc2c(N[C@H](C)c2cc(C#N)ccc2F)c1Cl [Example 561]

## Result
1: 1 to 10 µM; 2: < 1 µM; 3: < 1 µM; 4: 1 to 10 µM; 5: < 1 µM
